# System: human red blood cells (hRBCs)
# protocol-description: Hemolytic assay
# Assay type: cell-based
Peptide text beside a SMILES is read from it.
reported-property: HL50

# count of solved cases: 3
- compound: "CC(C)C[C@H](NC(=O)[C@H](CC(C)C)NC(=O)[C@H](CCCCN)NC(=O)CNC(=O)[C@H](CC(C)C)NC(=O)[C@H](CC(C)C)NC(=O)[C@H](CO)NC(=O)[C@H](CC(C)C)NC(=O)[C@H](CC(C)C)NC(=O)[C@H](CO)NC(=O)[C@H](C)NC(=O)[C@H](CC(C)C)NC(=O)CN)C(N)=O [DFT507, GLASLLSLLGKLL] (H-GLASLLSLLGKLL-NH2; N-terminus assumed)"
  assayed-target: "human red blood cells (hRBCs)"
  HL50: "<3.1 µM"
- compound: "CC[C@H](C)[C@H](NC(=O)[C@H](CCCNC(=N)N)NC(=O)[C@H](CCCNC(=N)N)NC(=O)[C@H](CCCNC(=N)N)NC(=O)[C@H](Cc1c[nH]c2ccccc12)NC(=O)[C@H](Cc1c[nH]c2ccccc12)NC(=O)[C@@H](N)Cc1c[nH]c2ccccc12)C(=O)N[C@@H](Cc1c[nH]c2ccccc12)C(N)=O [WW303, WWWRRRIW] (H-WWWRRRIW-NH2; N-terminus and C-terminus assumed)"
  assayed-target: "human red blood cells (hRBCs)"
  HL50: ">200 µM"
- compound: "CC(C)C[C@H](NC(=O)[C@H](CC(C)C)NC(=O)[C@H](CCCCN)NC(=O)CNC(=O)[C@H](CC(C)C)NC(=O)[C@H](CC(C)C)NC(=O)[C@H](CO)NC(=O)[C@H](C)NC(=O)[C@H](CC(C)C)NC(=O)[C@H](CO)NC(=O)[C@H](CC(C)C)NC(=O)[C@H](CC(C)C)NC(=O)CN)C(N)=O [DFT509, GLLSLASLLGKLL] (H-GLLSLASLLGKLL-NH2; N-terminus assumed)"
  assayed-target: "human red blood cells (hRBCs)"
  HL50: "4 µM"

*Q* Given the compound CC(C)C[C@H](NC(=O)[C@H](C)NC(=O)[C@H](CCCCN)NC(=O)CNC(=O)[C@H](CC(C)C)NC(=O)[C@H](C)NC(=O)[C@H](CCCCN)NC(=O)[C@H](CC(C)C)NC(=O)[C@H](C)NC(=O)[C@H](CO)NC(=O)[C@H](CC(C)C)NC(=O)[C@H](C)NC(=O)CN)C(N)=O [DFT530, GALSALKALGKAL] (H-GALSALKALGKAL-NH2; N-terminus assumed) , what is its reported HL50?
*A* >100 µM

*Q* Same again, this time with CC(C)C[C@H](NC(=O)[C@H](C)NC(=O)[C@H](CCCCN)NC(=O)CNC(=O)[C@H](CC(C)C)NC(=O)[C@H](C)NC(=O)[C@H](CCCCN)NC(=O)[C@H](CC(C)C)NC(=O)[C@H](C)NC(=O)[C@H](CO)NC(=O)[C@H](CC(C)C)NC(=O)[C@H](CC(C)C)NC(=O)CN)C(N)=O [DFT529, GLLSALKALGKAL] (H-GLLSALKALGKAL-NH2; N-terminus assumed)
*A* >50 µM

*Q* What do we get for CC[C@H](C)[C@H](NC(=O)[C@H](CCCNC(=N)N)NC(=O)[C@H](CCCNC(=N)N)NC(=O)[C@H](CC(C)C)NC(=O)[C@H](Cc1c[nH]c2ccccc12)NC(=O)[C@H](CCCNC(=N)N)NC(=O)[C@@H](N)Cc1c[nH]c2ccccc12)C(=O)N[C@@H](Cc1c[nH]c2ccccc12)C(N)=O [WW301, WRWLRRIW] (H-WRWLRRIW-NH2; N-terminus and C-terminus assumed) ?
*A* 100 µM

----------
# Test system: S. aureus USA300
# protocol-description: microbe, parasite or virus in culture
# Assay type: cell-based, Staphylococcus aureus
# cond: USA300, pH 8
Peptide text beside a SMILES is read from it.
reported-property: MIC (µM)
The figure you give is taken to be in µM; do not add the unit.

- compound: "CC(C)C[C@H](NC(=O)[C@H](CC(C)C)NC(=O)[C@H](CCCCN)NC(=O)[C@H](CC(C)C)NC(=O)CNC(=O)[C@H](CC(C)C)NC(=O)[C@H](CO)NC(=O)[C@H](CC(C)C)NC(=O)[C@H](CC(C)C)NC(=O)[C@H](CC(C)C)NC(=O)[C@H](CO)NC(=O)[C@H](CC(C)C)NC(=O)CN)C(N)=O [DFT503, GLSLLLSLGLKLL] (H-GLSLLLSLGLKLL-NH2; N-terminus and C-terminus assumed)"
  assayed-target: "S. aureus USA300"
  reported-property: "MIC"
  test-result: 3.1

*Q* If you can, please state the reported MIC value of CC(C)C[C@H](NC(=O)[C@H](CC(C)C)NC(=O)[C@H](CCCCN)NC(=O)[C@H](CC(C)C)NC(=O)CNC(=O)[C@H](CC(C)C)NC(=O)[C@H](CCCCN)NC(=O)[C@H](CC(C)C)NC(=O)[C@H](CC(C)C)NC(=O)[C@H](CC(C)C)NC(=O)[C@H](CCCCN)NC(=O)[C@H](CC(C)C)NC(=O)[C@@H](N)CCCCN)C(N)=O [DFT565, KLKLLLKLGLKLL] (H-KLKLLLKLGLKLL-NH2; N-terminus and C-terminus assumed) .
*A* 3.1

----------
# protocol-description: Toxicity to cells
# Assay type: cell-based
# cond: human, MRC9 human lung fibroblasts; read-out: LC50 (the source's name)
Peptide text beside a SMILES is read from it.
List of CC50 values.

- compound: "CC(C)[C@H](NC(=O)[C@H](Cc1c[nH]c2ccccc12)NC(=O)[C@H](Cc1c[nH]c2ccccc12)NC(=O)[C@H](Cc1c[nH]c2ccccc12)NC(=O)[C@H](Cc1c[nH]c2ccccc12)NC(=O)[C@H](CCCNC(=N)N)NC(=O)[C@H](CCCNC(=N)N)NC(=O)[C@@H](N)CCCNC(=N)N)C(N)=O [Verine, RRRWWWWV] (H-RRRWWWWV-NH2; N-terminus and C-terminus assumed)"
  CC50: "> 25 µM"

Now let's try a different one.
*Q* Recorded CC50 for CC(C)C[C@H](NC(=O)[C@H](Cc1c[nH]c2ccccc12)NC(=O)[C@H](Cc1c[nH]c2ccccc12)NC(=O)[C@@H](N)Cc1c[nH]c2ccccc12)C(=O)N[C@@H](CCCNC(=N)N)C(=O)N[C@@H](CCCNC(=N)N)C(=O)N[C@@H](CCCNC(=N)N)C(=O)N[C@@H](Cc1c[nH]c2ccccc12)C(N)=O [Horine, WWWLRRRW] (H-WWWLRRRW-NH2; N-terminus and C-terminus assumed) , please?
*A* > 35 µM

----------
# Test system: E. coli E423-17
# protocol-description: microbe, parasite or virus in culture
# Assay type: cell-based, Escherichia coli
# cond: Escherichia coli, E42317; Table 14; read-out: MIC E. coli E423-17
# Method: The bacterial strains used include the Gram-positive strains Staphylococcus aureus USA300 LAC, S. epidermidis 1457, and Bacillus subtilis 168, as well as the Gram-negative isolates Escherichia coli K12 and Acinetobacter baumannii B2367-12. […] The antibacterial activity of peptides was evaluated using a standard broth microdilution protocol with minor modifications as described (Mishra, et al. (2012) J. Am. Chem. Soc., 134:12426-12429). […]
reported-property: MIC (µM)
State the answer as a number, implicitly in µM.

- compound: "C[C@@H](O)[C@H]1C(=O)N2C(C(=O)O)=C(S[C@@H]3CN[C@H](CNS(N)(=O)=O)C3)[C@H](C)[C@H]12 [Doripenem, reference compound]"
  unit-text: "µM"
  MIC: 1

*Q* What value of MIC has been recorded for this entry: NC[C@H]1O[C@H](O[C@H]2[C@H](O)[C@@H](O[C@H]3O[C@H](CO)[C@@H](O)[C@H](N)[C@H]3O)[C@H](N)C[C@@H]2N)[C@H](N)C[C@@H]1O [Tobramycin, reference compound]
*A* 8

----------
# Test system: E. coli ATCC 25922
# Type: cell-based, Escherichia coli
# cond: ATCC 25922
Peptide text beside a SMILES is read from it.
reported-property: MIC E. coli ATCC 25922 (µM)
Respond numerically; units are µM and should not be typed.

- compound: "CC(C)C[C@H](NC(=O)[C@H](CC(C)C)NC(=O)[C@H](CCCCN)NC(=O)CNC(=O)[C@H](CC(C)C)NC(=O)[C@H](C)NC(=O)[C@H](CCCCN)NC(=O)[C@H](CC(C)C)NC(=O)[C@H](C)NC(=O)[C@H](CO)NC(=O)[C@H](CC(C)C)NC(=O)[C@H](CC(C)C)NC(=O)CN)C(N)=O [DFT514, GLLSALKALGKLL] (H-GLLSALKALGKLL-NH2; N-terminus assumed)"
  reported-property: "MIC E. coli ATCC 25922"
  test-result: 3.1

Let us examine a further case.
*Q* What value of MIC E. coli ATCC 25922 on E. coli ATCC 25922 does CC(C)C[C@H](NC(=O)[C@H](C)NC(=O)[C@H](CCCCN)NC(=O)CNC(=O)[C@H](CC(C)C)NC(=O)[C@H](CC(C)C)NC(=O)[C@H](CO)NC(=O)[C@H](CC(C)C)NC(=O)[C@H](CC(C)C)NC(=O)[C@H](CO)NC(=O)[C@H](CC(C)C)NC(=O)[C@H](CC(C)C)NC(=O)CN)C(N)=O [DFT512, GLLSLLSLLGKAL] (H-GLLSLLSLLGKAL-NH2; N-terminus assumed) have?
*A* 3.1
